I'd be grateful if you could share measured viability, T/C for these entries.
system: 282377-053-R-J1-PDC complex spheroid viability; test: Anticancer human tumor 282377-053-R-J1-PDC patient-derived colon adenocarcinoma cell line growth inhibition [RAS]; details: compound 10 µM; stronger effect = lower value;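 further: spheroids exposed to agents for seven days before readout; luminescence viability as percent of DMSO vehicle control wells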

The molecule CC(Nc1ccc2c(c1)OCCn1cc(N3C(=O)OCC3C(F)F)nc1-2)C(N)=O (centres undefined) showed viability, T/C equal to 84.6% [middle of 4 runs]

The recorded viability, T/C for C#Cc1c(F)ccc2cc(O)cc(-c3ncc4c(N5CC6CCC(C5)N6)nc(OCC56CCCN5CC(F)C6)nc4c3F)c12 (centres undefined) is 104% [middle of 8 runs]

Input NC1c2ccccc2OC12CCN(c1cnc3c(N4CCCc5ncccc54)n[nH]c3n1)CC2 (centres undefined) . Output viability, T/C: 89.8% [middle of 4 runs]

Sample CC1(O)CCCC1n1c(=O)c(C(F)F)cc2cnc(NC3CCN(S(C)(=O)=O)CC3)nc21 (centres undefined) ; viability, T/C observed: 5.45% [middle of 4 runs]
